tested on: UT5600 cells (NTR−) lysogens; experiment: Replica-plate screening of mutant NTR-expressing lysogens on increasing CB1954 (growth score); assay type: cell-based, E. coli; conditions: growth of lysogens on agar with kanamycin, IPTG and 0-400 μM CB1954; wild type = 4, higher = more sensitive
reported.metric: Score

Please review the following examples before continuing.
>  <molecule>
Y68N (protein) MDIISVALKRHSTKAFDASKKLTPEQAEQIKTLLQYSPSSTNSQPWHFIVASTEEGKARVAKSAAGNNVFNERKMLDASHVVVFCAKTAMDDVWLKLVVDQEDADGRFATPEAKAANDKGRKFFADMHRKDLHDDAEWMAKQVYLNVGNFLLGVAALGLDAVPIEGFDAAILDAEFGLKEKGYTSLVVVPVGHHSVEDFNATLPKSRLPQNITLTEV

>  <observed.result>
5-7

$$$$
>  <molecule>
T41L: NTR mutant, threonine 41 to leucine (protein) MDIISVALKRHSTKAFDASKKLTPEQAEQIKTLLQYSPSSLNSQPWHFIVASTEEGKARVAKSAAGNYVFNERKMLDASHVVVFCAKTAMDDVWLKLVVDQEDADGRFATPEAKAANDKGRKFFADMHRKDLHDDAEWMAKQVYLNVGNFLLGVAALGLDAVPIEGFDAAILDAEFGLKEKGYTSLVVVPVGHHSVEDFNATLPKSRLPQNITLTEV

>  <observed.result>
5-7

$$$$

Query: # get_value(readout='Score', item= F124A (protein) MDIISVALKRHSTKAFDASKKLTPEQAEQIKTLLQYSPSSTNSQPWHFIVASTEEGKARVAKSAAGNYVFNERKMLDASHVVVFCAKTAMDDVWLKLVVDQEDADGRFATPEAKAANDKGRKFAADMHRKDLHDDAEWMAKQVYLNVGNFLLGVAALGLDAVPIEGFDAAILDAEFGLKEKGYTSLVVVPVGHHSVEDFNATLPKSRLPQNITLTEV )
Result: 7-9
